test system: ATS95; assay: qHTS profiling for inhibitors of Plasmodium falciparum proliferation (AID 504749); further: nearly all actives have a fitted effect of over 60% in size; details: P. falciparum in erythrocytes, SYBR Green DNA, 72 h; series mostly up to 28.7 µM
Inconclusive results are not listed. Calls of active or inactive are those of the source. The call rests on the fitted dose curve; in most records, active means well fitted inhibition curve with a large enough effect; inconclusive means small, poorly fitted or top-dose-only effect; inactive means flat fitted curve, though single readings scatter.
Outcomes: True = active, False = inactive

Compound | Target Or Test System | Assigned Category
O=C(O)c1nc(=O)[nH]c(=O)[nH]1 | ATS95 | False
N#Cc1c(N(CC(=O)O)CC(=O)O)sc(C(=O)O)c1CC(=O)O | ATS95 | False
Clc1ccc(COC(Cn2ccnc2)c2ccc(Cl)cc2Cl)c(Cl)c1 (stereo not drawn) | ATS95 | True
COc1c(C)c2c(c(O)c1CC=C(C)CCC(=O)OCCN1CCOCC1)C(=O)OC2 | ATS95 | True
NS(=O)(=O)c1cc(Cl)c(Cl)c(S(N)(=O)=O)c1 | ATS95 | False
COc1cc2c(cc1OC)CC(=O)N(CCCN(C)C[C@H]1Cc3cc(OC)c(OC)cc31)CC2 | ATS95 | False
O=C1C(CCC(O)c2ccc(F)cc2)C(c2ccc(O)cc2)N1c1ccc(F)cc1 (stereo not drawn) | ATS95 | False
CN1CC(=O)N2C(Cc3c([nH]c4ccccc34)[C@H]2c2ccc3c(c2)OCO3)C1=O (stereo partly drawn) | ATS95 | False

----------
assay: Quantitative High-Throughput drug screen in 47 multiple myeloma cell lines against the NCATS MIPE library collection: KMM1_JCRB cell viability assay (AID 1918960); settings: KMM1 myeloma viability, CellTiter-Glo ATP luminescence, 48 h; series mostly up to 45.8 µM; further: nearly all actives have a fitted effect of over 30% in size
Records with an inconclusive call do not appear. Active and inactive are the calls of the source. Calls come from the whole dose curve; as a rule, active = well fitted cell-killing curve with a large enough effect; inconclusive = small, poorly fitted or top-dose-only effect, or effect the other way; inactive = no such curve, though single readings can be large or run the other way.
Outcomes: active, inactive

Compound | Assigned Category
CC1(C)OC2CC3C4CC(F)C5=CC(=O)C=CC5(C)C4C(O)CC3(C)[C@]2(C(=O)CO)O1 (some centres undefined) | active
CC1=C(C(=O)Nc2cc3cn[nH]c3cc2F)C(c2ccc(C(F)(F)F)cc2)CC(=O)N1 (centres undefined) | inactive
N#CC(c1ccnc(NCCc2cccnc2)n1)c1nc2ccccc2s1 (centres undefined) | active
Cc1ccc(S(=O)(=O)OCC(=O)Nc2ccc(C(=O)O)c(O)c2)cc1 | inactive
Cc1cccc(Nc2nc(N[C@@H]3CCCC[C@H]3N)ncc2C(N)=O)c1 | active
NC1(C(=O)N[C@@H](CCO)c2ccc(Cl)cc2)CCN(c2ncnc3[nH]ccc23)CC1 | active
O=C(NCCCCN1CCOCC1)c1cc2ccccc2o1 | inactive
C=CC[N+]1([C@H]2C[C@H]3[C@@H]4CC[C@H]5C[C@H](O)[C@@H](N6CCOCC6)C[C@]5(C)[C@@H]4CC[C@]3(C)[C@H]2OC(C)=O)CCCC1 | inactive
CC(C)C[C@@H](N)[C@H](O)C(=O)N[C@H](C(=O)N[C@H](C(=O)N[C@@H](CC(=O)O)C(=O)O)C(C)C)C(C)C | inactive

----------
experiment: Quantitative High-Throughput drug screen in 47 multiple myeloma cell lines against the NCATS MIPE library collection: NCIH929_DSMZ cell viability assay (AID 1918978); settings: NCI-H929 myeloma viability, CellTiter-Glo ATP, 48 h; series mostly up to 45.8 µM; further: nearly all actives have a fitted effect of over 35% in size
Inconclusive results are not listed. Calls of active or inactive are those of the source. Calls come from the whole dose curve; as a rule, active = well fitted cell-killing curve with a large enough effect; inconclusive = small, poorly fitted or top-dose-only effect; inactive = no such curve, though single readings can be large or run the other way.
Outcomes: active, inactive

Compound | Assigned Category
CC1(C)C(N(O)C(=O)Nc2ccc(Cl)cc2)N(c2ccc(Cl)cc2)C(=O)N1CC(=O)NN=CC=Cc1ccc([N+](=O)[O-])o1 (stereo not given) | active
Oc1cc(O)cc(C=Cc2ccc(O)c(O)c2)c1 | active
CCNC(=O)Nc1ccc(Oc2ncnc(N)c2C=NOC)cc1Cl | inactive
c1cc(OCCN2CCCCC2)cc(-c2n[nH]c3ccc(-c4ncn[nH]4)cc23)c1 | active
N#CC(c1ccnc(NCCc2cccnc2)n1)c1nc2ccccc2s1 (stereo not given) | active
